- assay-overview: soluble on expression in E. coli; label from the status in PepcDB or PDB records

| residues | soluble on expression in E. coli |
| --- | --- |
| MTGALNQAQKTPWRYGFLNLMRRVDAQLCDTPAGSIWQPRMEKFRLGQTPTMTFAPREIAQVSWQDGRLHLSLYSLGLWGPNGPLPLHYTELALNRSESRHDPTLVHFSNIFHHRWLTQFWQAWRSAQSAGGGLDKPEHDRFAFYIASLSGQDLRESAESPLSDHVRLAASAHLVRESRNPDGLAATLAHYFSVPFAVKEFALHWITVANDEITRLGTPAQSSVLGNGALIGQAVPDMQYKFRLIIGPLTLEDYLRFLPGGNNLPVLTELVRTFIGFEYCWEIELQLKPHAAPPAVIGGAQRLGWTAWAGKAMHDRPVTGMIFEPEHGLTH | not soluble |
| MAHHHHHHMTSLHPFEYAFMAGASFSPEERVQLTSSLPLLSVQTKRKNLVLWGKIFGCKADYIIVEAFDDDAVVEPELYHTLDEGRTFSLLGTFSSVFSTCPGYSSCSGLQQAEWKQFMLLGMRGPFFGDPAYEYRVSNHSSSDSAPEIQSVKESVRLALFVEEFDHECRVVPRGAYMKAERQATATIASTTGAEVDAGERAEVRRNTALADFRERRRERCRCGTTTTCVP | not soluble |
